ASSAY_NAME: protein stability index of a GFP-peptide fusion (yeast GPS) (PSI 1-4); higher = more stable; sorted into four equal gates, so the index is relative within each strain
CONDITION_PARAMETERS: pdr5∆
Below, each of the sequences is paired with its reported protein stability index value.
Lab note: record just the number, no unit beside it.

Request: Give the reported value of protein stability index for this record: LSTTPTKSNRRVSHSDT [SIR4]
Response: 3.06

Next:
Request: Give the reported value of protein stability index for this record: AVEQLAGCKIDNVDDIG [YDL088C/ASM4]
Response: 2.64

Request: Give the reported value of protein stability index for this record: AAAFSQQQNASSKLYQM [GAL11]
Response: 2.86

Request: Give the reported value of protein stability index for this record: GLMSANNIIAEGIEKMG [FAS2]
Response: 1.74

Request: Give the reported value of protein stability index for this record: NLLKVSVDICNNSKSRY [ECM29]
Response: 2.2

Request: Give the reported value of protein stability index for this record: VVRRRFRGNISQPKIGY [RPL32]
Response: 2.88

Request: Give the reported value of protein stability index for this record: ASTPSIRPDGRLPHQFR [RRP42]
Response: 3.21

Request: Give the reported value of protein stability index for this record: DPLNSNIFSEAVKNKYN [PRP28]
Response: 2.74

Request: Give the reported value of protein stability index for this record: TPLRDEVTDKNYYYLFD [PRP8]
Response: 2.55

Request: Give the reported value of protein stability index for this record: SKINSTELLDYATKLSK [MED4]
Response: 2.72

Request: Give the reported value of protein stability index for this record: NMGSLLGLCLVIQIVTG [COB]
Response: 2.58

Request: Give the reported value of protein stability index for this record: FLPRKRAASIRARVKAF [RPL3]
Response: 1.18

Request: Give the reported value of protein stability index for this record: FKYRKARLEPGTAIGAI [RPO31]
Response: 1.99

Request: Give the reported value of protein stability index for this record: NKDASLALQRGATVFVN [DPB4]
Response: 2.29

Request: Give the reported value of protein stability index for this record: ASTVAKTAPIQESFVPN [YOR098C/NUP1]
Response: 2.83

---

ASSAY_NAME: protein stability index of a GFP-peptide fusion (yeast GPS) (PSI 1-4); higher = more stable; sorted into four equal gates, so the index is relative within each strain
CONDITION_PARAMETERS: san1∆
Classification field: TRUE = protein stability index at or over 3; FALSE = protein stability index under 3.

Example cases with answers are listed next.
Request: Confirm if protein stability index reported for the sequence DTNVVLQAIDLLENPNC [DIS3] is 3 or above.
Response: FALSE

Request: Confirm if protein stability index reported for the sequence DGGLEEETDEVSSESSD [SIR3] is 3 or above.
Response: TRUE

Request: Confirm if protein stability index reported for the sequence KVDWAREHFEKTVAVDS [RPL3] is 3 or above.
Response: FALSE

Request: Confirm if protein stability index reported for the sequence FDKNTKTTPNTASSEAS [YMR153W/NUP53] is 3 or above.
Response: FALSE

Request: Confirm if protein stability index reported for the sequence SDIIILKGEIEDYPMSS [SIR4] is 3 or above.
Response: TRUE

Next:
Request: Confirm if protein stability index reported for the sequence WRKWNVKVNHNEKRYAT [RPL4A] is 3 or above.
Response: FALSE

Request: Confirm if protein stability index reported for the sequence AGGGSNKSSVRPTGGAN [MED6] is 3 or above.
Response: FALSE

Request: Confirm if protein stability index reported for the sequence MTIPHMKYAVSKTSENK [SIR2] is 3 or above.
Response: FALSE

Request: Confirm if protein stability index reported for the sequence RGSLDSEHVFDYFFYFL [NUT1] is 3 or above.
Response: FALSE

Request: Confirm if protein stability index reported for the sequence ENVGTRLLPINVNKKAL [MED11] is 3 or above.
Response: FALSE

Request: Confirm if protein stability index reported for the sequence QFLRLIFVSILSDRANK [ARP9] is 3 or above.
Response: FALSE

Request: Confirm if protein stability index reported for the sequence NEAPPKTSLADWQKEDG [YMR153W/NUP53] is 3 or above.
Response: FALSE
